All values here come from patent US20230233569A1.

target: NRAS WT (Homo sapiens, UniProt P01111+P62937); assay: Ras-Raf disruption / FRET / MOA assay (BRAF RBD); assay type: biochemical; details: NRAS WT; read-out: NRAS WT FRET data IC50
Sequence (P01111 whole entry): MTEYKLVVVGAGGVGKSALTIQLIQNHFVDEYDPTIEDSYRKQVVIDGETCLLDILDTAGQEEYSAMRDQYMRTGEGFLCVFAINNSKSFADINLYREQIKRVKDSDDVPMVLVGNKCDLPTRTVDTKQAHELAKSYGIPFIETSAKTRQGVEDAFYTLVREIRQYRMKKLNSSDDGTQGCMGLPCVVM
Sequence (P62937 whole entry): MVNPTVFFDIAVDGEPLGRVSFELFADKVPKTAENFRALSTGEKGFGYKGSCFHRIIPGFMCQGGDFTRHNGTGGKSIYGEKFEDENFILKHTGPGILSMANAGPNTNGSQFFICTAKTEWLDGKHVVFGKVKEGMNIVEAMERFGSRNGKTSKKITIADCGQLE
pIC50: −log10 of the molar value.
Result type: pIC50

INPUT: Hi! What's the reported pIC50 for CCn1c(-c2cccnc2[C@H](C)OC)c2c3cc(ccc31)-c1csc(n1)C[C@H](NC(=O)[C@H](C(C)C)N(C)C(=O)N1CC(CN(C)C(=O)[C@H]3CN3)C1)C(=O)N1CCC[C@H](N1)C(=O)OCC(C)(C)C2 (atropisomer, axis not shown) on NRAS WT (Homo sapiens, UniProt P01111+P62937)?
OUTPUT: 7.00 to 8.00

INPUT: Hi! What's the reported pIC50 for CCn1c(-c2cccnc2[C@H](C)OC)c2c3cc(ccc31)-c1cc(O)cc(c1)C[C@H](NC(=O)[C@@H](COC1CCN(C(=O)[C@H]3CN3)CC1)C(C)C)C(=O)N1CCC[C@H](N1)C(=O)OCC(C)(C)C2 (atropisomer, axis not shown) on NRAS WT (Homo sapiens, UniProt P01111+P62937)?
OUTPUT: 6.00 to 7.00

----------
molecular target: KRAS G13C (Homo sapiens, UniProt P01116+P62937, G13C); assay: Disruption of BRAF RBD interaction with Ras (FRET / MOA assay, with Cyclophilin A); assay type: biochemical; conditions: read-out: KRAS G13C FRET data, IC50
Sequence (P01116 1-169 isoform P01116-2 G13C): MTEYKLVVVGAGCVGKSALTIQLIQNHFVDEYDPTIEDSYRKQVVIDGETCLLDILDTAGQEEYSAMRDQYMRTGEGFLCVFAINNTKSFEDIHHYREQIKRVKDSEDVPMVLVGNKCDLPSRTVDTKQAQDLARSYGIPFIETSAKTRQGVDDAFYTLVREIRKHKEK
Sequence (P62937 whole entry): as the sequence (P62937 whole entry) above
Result type: IC50

INPUT: Hi! What's the reported IC50 for CCn1c(-c2cccnc2[C@H](C)OC)c2c3cc(ccc31)-c1csc(n1)C[C@H](NC(=O)[C@H](C(C)C)N(C)C(=O)N1CC[C@H](N(C)C)C1)C(=O)N1CCC[C@H](N1)C(=O)OCC(C)(C)C2 on KRAS G13C (Homo sapiens, UniProt P01116+P62937, G13C)?
OUTPUT: 0.1 to 1 µM

INPUT: Hi! What's the reported IC50 for CCn1c(-c2cccnc2[C@H](C)OC)c2c3cc(ccc31)-c1csc(n1)C[C@H](NC(=O)[C@H](C(C)C)N(C)C(=O)N1CC[C@H]3CN(C)C[C@H]31)C(=O)N1CCC[C@H](N1)C(=O)OCC(C)(C)C2 (atropisomer, axis not shown) on KRAS G13C (Homo sapiens, UniProt P01116+P62937, G13C)?
OUTPUT: 0.1 to 1 µM

INPUT: Hi! What's the reported IC50 for CCn1c(-c2cccnc2[C@H](C)OC)c2c3cc(ccc31)-c1cc(O)cc(c1)C[C@H](NC(=O)[C@H](C(C)C)N(C)C(=O)[C@H]1CCN(C(=O)OC3COC3)C1)C(=O)N1CCC[C@H](N1)C(=O)OCC(C)(C)C2 on KRAS G13C (Homo sapiens, UniProt P01116+P62937, G13C)?
OUTPUT: 0.01 to 0.1 µM

INPUT: Hi! What's the reported IC50 for CCn1c(-c2cccnc2[C@H](C)OC)c2c3cc(ccc31)-c1cc(O)cc(c1)C[C@H](NC(=O)[C@H](C(C)C)N(C)C(=O)C1Cc3cccnc3C1)C(=O)N1CCC[C@H](N1)C(=O)OCC(C)(C)C2 (stereo partly shown) on KRAS G13C (Homo sapiens, UniProt P01116+P62937, G13C)?
OUTPUT: 0.01 to 0.1 µM
